This collection of values is drawn from PubChem BioAssay (NCI).

# Tested on: NCI-H23 lung
# assay summary: NCI tumour cell line growth inhibition, 48 h
measurement name: TGI

compound	TGI
O=C(c1c(F)c(F)c(F)c(F)c1F)n1c(=O)[nH]c2ccccc21	11.4 µM
CCCOP1(=O)C=C(C)C(Cl)=C(C)C1 (stereo unspecified)	37 µM
Cc1cc(Cl)ccc1NC(=O)/C(Cc1nc2ccc(C(=O)c3ccccc3)cc2[nH]c1=O)=N/NC(=O)c1ccncc1	> 100 µM
CC(=O)N1c2ccccc2C2=NN=C(N(C)C)SC21 (stereo unspecified)	19.3 µM
Cc1ccc(-n2nnc3c(NNc4ccccc4)n[nH]c(=O)c32)cc1	> 100 µM

Provide each entry's TGI from the list below.
1. CN(C)CCN1N=Nc2cccc3cccc1c23
2. NC(=O)c1csc(C2O[C@@H](COP(=O)(O)OP(=O)(O)OC[C@H]3OC(n4cnc5c(N)ncnc54)[C@H](O)[C@@H]3O)[C@H](O)[C@@H]2O)n1 (stereo partly specified)
3. O=C1C(Cl)=C(Oc2ccccc2)C(=O)c2ccccc21
4. CC12CC(=O)OC(Cc3ccccc31)O2 (stereo unspecified)
5. N.N.NCCCCN.O=C([O-])CC(=O)[O-].O=C([O-])CC(=O)[O-].[Pt+4].[Pt+4]
6. c1ccc2nc3c(nc2c1)sc1nc2ccccc2n13
7. COc1cccc(/C=C\c2cc(OC)c(OC)c(OC)c2)c1
8. O=NN(CCCl)C(=O)NCc1ccc[n+]([O-])c1

Given back:
1: > 100 µM; 2: > 100 µM; 3: 24.5 µM; 4: > 100 µM; 5: > 100 µM; 6: > 100 µM; 7: 9.4 µM; 8: > 100 µM
